Biological target: FAAH (Mus musculus)
Experiment: In vivo FAAH inhibition, liver, after oral administration to mice
Details: 30 mg kg^−1 p.o. in mice, 1 h after administration; Table 2
Measured Liver FAAH activity, percent of control accompanies every entry in the list below.

1. O=C(N1CCC(Cc2ccccc2)CC1)n1nnc2ccccc21 : 6±1% of control

IN: // returns reported Liver FAAH activity, percent of control for input NC(=O)c1cccc(-c2cccc(OC(=O)NC3CCCCC3)c2)c1 [Compound 2, URB597, reference compound]
OUT: 6±1% of control

IN: // returns reported Liver FAAH activity, percent of control for input CN(C(=O)n1nnc2ccccc21)C1CCCCC1
OUT: 1±0% of control

IN: // returns reported Liver FAAH activity, percent of control for input O=C(N1CCN(c2ccccc2)CC1)n1nnc2ccccc21
OUT: 30±5% of control

IN: // returns reported Liver FAAH activity, percent of control for input O=C(NCc1ccccc1)n1nnc2ccccc21
OUT: 84±6% of control

* * *

Experiment: CYP450 metabolic stability, primate liver microsomes
Type: in vitro ADME
Details: 5 μM in liver microsomes, 1 h incubation
Measured CYP450 metabolic stability, Primate, percent of remaining accompanies every entry in the list below.

1) CC1(C)COCN1C(=O)n1nnc2cc(C(N)=O)ccc21 [Compound 11 h] : 57±3% of remaining
2) CN(C(=O)n1cnc(-c2ccccc2)c1)C1CCN(Cc2ccccc2)CC1 [Compound 8 h] : 41±3% of remaining
3) CN(C(=O)n1cnc(-c2ccc[n+]([O-])c2)c1)C1CCCCC1 [Compound 8 l] : 88±1% of remaining

In the following, a different compound is considered.
IN: // returns reported CYP450 metabolic stability, Primate, percent of remaining for input CC1(C)COCN1C(=O)n1nnc2ccccc21 [Compound 11 a]
OUT: 0±0% of remaining

* * *

Biological target: UniProt:O08914
Sequence (O08914 1-579): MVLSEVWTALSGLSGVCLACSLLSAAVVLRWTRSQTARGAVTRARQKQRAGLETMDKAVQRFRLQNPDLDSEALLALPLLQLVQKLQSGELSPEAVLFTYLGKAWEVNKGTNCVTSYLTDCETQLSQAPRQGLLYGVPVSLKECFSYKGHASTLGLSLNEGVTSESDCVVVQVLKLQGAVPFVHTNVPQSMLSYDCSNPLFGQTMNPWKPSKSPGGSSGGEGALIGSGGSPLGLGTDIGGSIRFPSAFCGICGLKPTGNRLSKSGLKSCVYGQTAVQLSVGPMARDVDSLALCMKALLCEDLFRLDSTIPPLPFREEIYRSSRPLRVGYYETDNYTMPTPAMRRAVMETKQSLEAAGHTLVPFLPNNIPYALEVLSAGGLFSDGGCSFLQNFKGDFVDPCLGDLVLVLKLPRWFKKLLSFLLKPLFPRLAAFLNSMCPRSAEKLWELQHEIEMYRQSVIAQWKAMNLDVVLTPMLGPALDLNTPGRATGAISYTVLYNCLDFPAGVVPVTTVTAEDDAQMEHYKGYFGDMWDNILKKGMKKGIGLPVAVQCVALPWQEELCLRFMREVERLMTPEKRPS
Assay: In vivo FAAH inhibition, brain, after oral administration to mice
Settings: 0.1 mg kg^−1 p.o. in mice, 8 h after administration; Table 4
Reported Endpoint: Brain FAAH activity, percent of control

IN: // returns reported Brain FAAH activity, percent of control for input CC1(C)COCN1C(=O)n1nnc2cc(C(N)=O)ccc21 [Compound 11 h]
OUT: 6±1% of control

IN: // returns reported Brain FAAH activity, percent of control for input CC1(C)COCN1C(=O)n1nnc2ccc(-c3ccccc3)cc21 [Compound 11 d]
OUT: 76±18% of control

IN: // returns reported Brain FAAH activity, percent of control for input CC1(C)COCN1C(=O)n1nnc2ccccc21 [Compound 11 a]
OUT: 24±7% of control

Attribution: paper PMC6582431
